assay text: qHTS assay for small molecule agonists of the antioxidant response element (ARE) signaling pathway (AID 651741)
assay setup: HepG2 ARE-bla reporter, beta-lactamase FRET ratio, 16 h; series mostly up to 96 µM
Records with an inconclusive call do not appear. Active and inactive are the calls of the source. Calls follow the shape of the dose curve; as a rule, active = well fitted activation curve with a large enough effect in the signal ratio; inconclusive = small, poorly fitted or top-dose-only effect, or effect the other way, or a change in a side signal; inactive = flat fitted curve, though single readings scatter; the % refers to the signal ratio.
Log the outcome using a class from active, inactive

Past entries and their recorded results:
COC(=O)c1ccccc1C(=O)OC	inactive
COC1=CC(=O)OC(CCc2ccc3c(c2)OCO3)C1 (stereo not given)	inactive
Oc1ccccc1O	active
CC(C)OC(=O)Nc1ccccc1	inactive

Now consider the entry below.
Recorded test call requested for CCOc1cc(C=O)ccc1O inactive

---

Test system: C33A
assay text: Primary qHTS to identify gynecologic anti-cancer compounds using libraries of approved drugs and bioactive compounds (AID 1345084); also: nearly all actives have a fitted effect of over 55% in size
assay setup: Gynecologic cancer cell panel viability, ATPlite luminescence, 48 h; series mostly up to 57.5 µM
Results filed as inconclusive are left out. Active and inactive are the calls of the source. The call rests on the fitted dose curve; in most records, active means well fitted cell-killing curve with a large enough effect; inconclusive means small, poorly fitted or top-dose-only effect, or effect the other way; inactive means flat fitted curve, though single readings scatter.
Log the outcome using a class from t (active), f (inactive)

Past entries and their recorded results:
CC(=O)OC[C@]12C[C@H](OC(=O)CC(C)C)C(C)=C[C@H]1O[C@@H]1[C@H](O)C[C@@]2(C)[C@]12CO2	t
Cc1sc2c(c1C)C(c1ccc(Cl)cc1)=N[C@@H](CC(N)=O)c1nnc(C)n1-2	f
Cc1cccc(NC(=O)NC2N=C(c3ccccc3)c3ccccc3N(CC(=O)c3ccccc3C)C2=O)c1 (configuration not stated)	f

Recorded test call requested for COC1CC(O[C@H]2CC[C@@]3(C)C(CCC4C3CC[C@]3(C)[C@@H](C5=CC(=O)OC5)CC[C@]43O)C2)OC(C)C1O (some centres not stated) t

Moving on to CC(=O)OC[C@]12[C@H](OC(C)=O)C(=O)[C@@H]3[C@@H](O)[C@@]14O[C@@]3(C)COC(=O)c1cccnc1[C@@H](C)[C@H](C)C(=O)O[C@@H]([C@H](OC(C)=O)[C@@H]2OC(C)=O)[C@]4(C)O f

Moving on to COc1ccc(CCNCc2ccc(OC)c3ccccc23)cc1 f

Moving on to CC(=O)O[C@@H]1[C@H]2CC[C@H]3[C@@](C)(O)[C@@H]4C[C@H](O)C(C)(C)[C@@]4(O)[C@H](O)C[C@@]13C[C@@]2(C)O f

---

system: Nucleoprotein (Lymphocytic choriomeningitis virus (strain Armstrong)) (UniProt P09992)
Sequence (P09992 whole entry, looked up): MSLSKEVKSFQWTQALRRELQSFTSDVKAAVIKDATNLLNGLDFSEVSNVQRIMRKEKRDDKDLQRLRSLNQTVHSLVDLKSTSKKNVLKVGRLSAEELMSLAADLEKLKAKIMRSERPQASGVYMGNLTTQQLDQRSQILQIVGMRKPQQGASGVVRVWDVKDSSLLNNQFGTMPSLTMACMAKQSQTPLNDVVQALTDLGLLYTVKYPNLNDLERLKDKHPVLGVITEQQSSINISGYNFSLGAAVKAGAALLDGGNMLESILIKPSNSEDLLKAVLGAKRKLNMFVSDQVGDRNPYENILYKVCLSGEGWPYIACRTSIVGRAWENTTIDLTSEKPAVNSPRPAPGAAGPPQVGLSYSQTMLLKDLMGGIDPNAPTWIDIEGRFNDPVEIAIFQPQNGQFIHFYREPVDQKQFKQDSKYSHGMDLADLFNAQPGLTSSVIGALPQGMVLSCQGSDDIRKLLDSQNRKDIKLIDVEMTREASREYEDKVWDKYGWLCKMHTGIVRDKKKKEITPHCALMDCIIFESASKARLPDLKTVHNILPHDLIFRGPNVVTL
assay text: qHTS for Inhibitors of the Functional Ribonucleoprotein Complex (vRNP) of Lymphocytic Choriomeningitis Arenaviruses (LCMV): LCMV Primary Screen - GLuc reporter signal (AID 1347086); also: nearly all actives have a fitted effect of over 70% in size
assay setup: LCMV minigenome vRNP cell assay, Gaussia luciferase reporter; series mostly up to 57.5 µM
Results filed as inconclusive are left out. Activity calls are given as the source filed them. Calls follow the shape of the full dose curve.
Log the outcome using a class from Y = active, N = inactive

Recorded test call requested for O=C(O)c1ccccc1Nc1cccc(OCc2ccc3ccccc3n2)c1 N

Moving on to COc1ccc2[nH]c3c(c2c1)CCNC3C (stereo unspecified) N

Moving on to CC1(C)CCC[C@@](C)([C@H]2CC[C@]3(C)[C@@H]2[C@H](O)CC2[C@@]4(C)CC[C@H](O)C(C)(C)[C@@H]4[C@@H](O)C[C@]23C)O1 (stereo partly specified) N

Moving on to CCCCCCCCCC(=O)NC(CN1CCOCC1)[C@H](O)c1ccccc1 (stereo partly specified) N

Moving on to CN1CCN(Cc2ccc(NC(=O)Nc3ccc(Oc4cc(NC(=O)C5CC5)ncn4)cc3)cc2C(F)(F)F)CC1 Y

Moving on to CCCCCCOC(=O)CCCCC N

Moving on to COc1ccc(CNC(=S)NCc2ccc(OC)cc2)cc1 N

Moving on to Oc1ccc(C=Cc2cc(O)cc(O)c2)cc1 N

Moving on to CC(C)(O)C1OC2CCC3(C)C(O)(CCC4Cc5c([nH]c6ccccc56)C43C)C2=CC1=O (stereo unspecified) N

Moving on to C=C1C2C[C@]3(C4CC5[C@@]6(C)CC[C@H](O)[C@@]5(C3CC2=O)C4[N+]([O-])(CC)C6)[C@@H]1O (stereo partly specified) N

Moving on to COc1cccc(OC)c1C(=O)O N

Moving on to CCOc1cc2c(c(F)c1OCC)C(=N)N(CC(=O)c1cc(N3CCOCC3)c(OC)c(C(C)(C)C)c1)C2 Y

Moving on to CCCCCCCCC1OC1CCCCCCCC(=O)O (stereo unspecified) N

Moving on to COc1cc2cc(c1Cl)N(C)C(=O)CC(OC(=O)C(C)N(C)C(C)=O)C1(C)OC1C(C)C1CC(O)(NC(=O)O1)C(OC)C=CC=C(C)C2 (stereo unspecified) N

Moving on to CC(C)(O)C1CC[C@@](C)([C@@H]2CC[C@]3(C)[C@H]2[C@H](O)CC2[C@@]4(C)CCC(O)C(C)(C)C4C(OC4OC(CO)C(O)C(O)C4O[C@@H]4OCC(O)C(O)C4O)C[C@]23C)O1 (stereo partly specified) N

Moving on to CCC1CN2CCC1CC2C(O)c1ccnc2ccccc12 (stereo unspecified) N

Moving on to COc1ccc(-c2cnc(-c3cccnc3)o2)cc1 N

---

assay text: Cytotoxicity counterscreen for inhibitors of SARS-CoV-2 cell entry (AID 1645845); also: nearly all actives have a fitted effect of over 50% in size
assay setup: cell viability (SARS-CoV-2 entry assay cells); series mostly up to 57.1 µM
Records with an inconclusive call do not appear. Calls of active or inactive are those of the source. The call rests on the fitted dose curve. Numbered stars: 1 amine (or outer) side, 2 acyl side, 3 side chain; on linkers, the order of the positions; unused ones are H or OH. Bridge positions count the residues as written; N and C are the ends. Square brackets hold non-standard residues; d marks the D form. Peptide text beside a SMILES is read from it. * marks the point of attachment. ξ: configuration not given here. ξhTyr(3S-OH,4S-OH,3'-OSO3H) = NC(C(=O)O)[C@H](O)[C@@H](O)c1ccc(O)c(OS(=O)(=O)O)c1; Orn(4R-OH,5R-OH) = O=C([C@H](C[C@@H](O)[C@@H](O)N[*:3])N[*:1])[*:2]; X2 = CCCCCOc1ccc(-c2cc(-c3ccc(C(=O)*)cc3)no2)cc1; X3 = C[C@H]1CN([*:1])C(C(=O)[*:2])[C@H]1O; ξGln(3R-OH) = NC(=O)C[C@@H](O)C(N)C(=O)O; ξPro(4R-OH) = O=C(O)C1C[C@@H](O)CN1; ξThr(3R) = C[C@@H](O)C(N)C(=O)O
Log the outcome using a class from active, inactive

O=C(O)C1(Cc2cccc(Nc3nccs3)n2)CCC(Oc2cccc(Cl)c2F)CC1 (stereo not given)	inactive
CS(=O)(=O)N1CCc2c(-c3cnc(N)nc3)nc(N3CCOCC3)nc21	active
c1coc(CNc2ncnc3nc[nH]c23)c1	inactive
C[C@H](CCC(=O)O)[C@H]1CC[C@H]2[C@H]3[C@@H](CC[C@]12C)[C@@]1(C)CC[C@@H](O)C[C@H]1C[C@@H]3O	inactive
CC1COC2(CCN(c3nc(=O)c4cc(C(F)(F)F)cc([N+](=O)[O-])c4s3)CC2)O1 (stereo not given)	inactive
C[N+]1(CCCCC[N+]2(C)CCCC2)CCCC1	inactive
O=C(c1cncc(Br)c1)N1CCC(N2CCCC2)CC1	inactive
CCCCCOc1ccc(-c2cc(-c3ccc(C(=O)N[C@H]4C[C@@H](O)[C@@H](O)NC(=O)C5[C@@H](O)[C@@H](C)CN5C(=O)C([C@H](O)CC(N)=O)NC(=O)C([C@H](O)[C@@H](O)c5ccc(O)c(OS(=O)(=O)O)c5)NC(=O)C5C[C@@H](O)CN5C(=O)C([C@@H](C)O)NC4=O)cc3)no2)cc1 (stereo partly drawn) (X2-[Orn(4R-OH,5R-OH)][ξThr(3R)][ξPro(4R-OH)][ξhTyr(3S-OH,4S-OH,3'-OSO3H)][ξGln(3R-OH)][X3]; lactam 1-C)	inactive
Cc1[nH]c(/C=C2\C(=O)Nc3ccc(S(=O)(=O)N(C)c4cccc(Cl)c4)cc32)c(C)c1C(=O)N1CCN(C)CC1	inactive
CCOC(=O)C1(c2ccccc2)CCCN(C)CC1 (stereo not given)	inactive

Recorded test call requested for C#Cc1cccc(Nc2ncnc3cc(OCCOC)c(OCCO)cc23)c1 inactive

Moving on to COc1ccc(-n2c(C)c([N+](=O)[O-])c3ccc(O)cc32)cc1 inactive

Moving on to CN(C)S(=O)(=O)c1ccc2c(c1)C(=Cc1cc3c([nH]1)CCCC3)C(=O)N2 inactive

Moving on to CCCOc1ccn2c(C(C)=O)cc(-c3ccccc3S(C)(=O)=O)c2c1 inactive

Moving on to C[C@H](NC(=O)C(=O)Nc1ccccc1C(C)(C)C)C(=O)N[C@@H](CC(=O)O)C(=O)COc1c(F)c(F)cc(F)c1F inactive

Moving on to COc1cc(OC)c(NC(=O)Nc2cc(C)on2)cc1Cl inactive

Moving on to O=C(c1ccc(C(=O)N2CCC(N3CCCC3)CC2)c(Nc2ccccc2)c1)N1CCC(N2CCCC2)CC1 inactive
